kinase still bound, per cent of control overview
# Assay target: AXL (human) (UniProt P30530)
# Assay comment: KINOMEscan competition binding
# Condition info: compound 10.0 µM

CN1C(=O)c2ccccc2N(C)c2nc(NS(=O)(=O)c3ccc(N)cc3)ncc21 : 100%
CN1CCN(c2ccc(C(=O)Nc3ncc4c(n3)N(C)c3ccccc3C(=O)N4C)cc2)CC1 : 100%
O=C1NC(=S)S/C1=C\c1ccc(-c2cccc3ccccc23)o1 : 29%

Given the entry O=C1NC(=O)/C(=C/c2c[nH]c(=O)c(-c3ccc(N4CCNCC4)nc3)c2)S1 , report its measured kinase still bound, per cent of control.
24%

What does the record list as kinase still bound, per cent of control for COc1cc(N2CCN(C)CC2)ccc1Nc1ncc2c(n1)Nc1ccccc1NC2=O ?
83%

Tell me the measured kinase still bound, per cent of control of COc1cc(N2CCN(C)CC2)ccc1Nc1ncc2c(n1)N(C)c1ccccc1N(C)C2=O , please.
95%

* * *

Quick reference: kinase still bound, per cent of control of the listed items.
# Assay target: MYO3A (human) (UniProt Q8NEV4)
# Sequence (Q8NEV4 whole entry, looked up): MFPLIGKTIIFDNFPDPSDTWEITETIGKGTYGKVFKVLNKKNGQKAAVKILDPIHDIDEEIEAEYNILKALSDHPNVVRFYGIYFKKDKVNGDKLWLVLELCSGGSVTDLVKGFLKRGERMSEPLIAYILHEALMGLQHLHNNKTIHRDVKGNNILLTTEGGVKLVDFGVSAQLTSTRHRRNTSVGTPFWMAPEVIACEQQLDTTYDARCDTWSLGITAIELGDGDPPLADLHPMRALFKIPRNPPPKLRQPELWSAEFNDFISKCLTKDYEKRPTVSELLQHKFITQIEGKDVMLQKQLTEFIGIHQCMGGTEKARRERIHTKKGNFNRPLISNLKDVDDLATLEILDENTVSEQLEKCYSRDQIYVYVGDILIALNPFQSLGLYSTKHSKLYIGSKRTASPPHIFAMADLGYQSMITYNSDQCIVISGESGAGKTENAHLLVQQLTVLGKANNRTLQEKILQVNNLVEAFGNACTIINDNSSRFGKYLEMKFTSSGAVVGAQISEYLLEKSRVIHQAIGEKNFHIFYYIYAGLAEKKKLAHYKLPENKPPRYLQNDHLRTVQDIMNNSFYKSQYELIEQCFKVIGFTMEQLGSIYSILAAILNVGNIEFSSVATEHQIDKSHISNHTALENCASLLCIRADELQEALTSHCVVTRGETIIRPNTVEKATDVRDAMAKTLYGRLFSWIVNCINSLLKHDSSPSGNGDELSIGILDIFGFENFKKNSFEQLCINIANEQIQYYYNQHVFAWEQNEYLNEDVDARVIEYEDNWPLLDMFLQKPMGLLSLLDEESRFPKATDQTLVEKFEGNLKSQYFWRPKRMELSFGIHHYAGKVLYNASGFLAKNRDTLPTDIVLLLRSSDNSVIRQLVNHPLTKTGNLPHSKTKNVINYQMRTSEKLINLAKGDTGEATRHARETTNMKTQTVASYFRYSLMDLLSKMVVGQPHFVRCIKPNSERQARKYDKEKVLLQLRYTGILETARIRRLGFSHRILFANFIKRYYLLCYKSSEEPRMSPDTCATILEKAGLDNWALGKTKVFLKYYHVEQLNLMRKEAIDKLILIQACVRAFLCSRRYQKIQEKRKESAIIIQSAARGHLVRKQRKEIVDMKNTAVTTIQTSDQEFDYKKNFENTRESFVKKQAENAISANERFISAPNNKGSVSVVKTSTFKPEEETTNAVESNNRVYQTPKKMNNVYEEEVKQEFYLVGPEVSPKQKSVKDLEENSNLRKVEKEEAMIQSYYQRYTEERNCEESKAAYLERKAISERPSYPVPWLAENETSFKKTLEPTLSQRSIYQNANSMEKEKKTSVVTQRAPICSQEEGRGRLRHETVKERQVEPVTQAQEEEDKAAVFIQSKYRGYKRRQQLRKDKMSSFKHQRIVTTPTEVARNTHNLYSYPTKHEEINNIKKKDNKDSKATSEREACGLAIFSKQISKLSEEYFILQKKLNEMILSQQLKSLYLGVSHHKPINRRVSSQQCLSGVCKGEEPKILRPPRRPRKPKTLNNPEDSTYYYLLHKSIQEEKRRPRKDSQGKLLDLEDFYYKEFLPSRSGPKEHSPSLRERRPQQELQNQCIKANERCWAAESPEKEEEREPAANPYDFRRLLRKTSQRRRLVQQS
# Assay comment: KINOMEscan competition binding
# Condition info: compound 10.0 µM
Kindly answer with a numeric value in %, unit omitted.

COc1cc(N2CCN(C)CC2)ccc1Nc1ncc2c(n1)N(C)c1sccc1C(=O)N2C : 59
CN1C(=O)c2ccccc2N(C)c2nc(NS(=O)(=O)c3ccc(N)cc3)ncc21 : 100
CN1C(=O)c2ccccc2N(C)c2nc(Nc3ccc(N4CCC(O)CC4)cc3)ncc21 : 85

Any idea what kinase still bound, per cent of control was measured for O=C1NC(=O)/C(=C/c2c[nH]c(=O)c(-c3ccc(N4CCNCC4)nc3)c2)S1 ?
46

Which kinase still bound, per cent of control is reported for this molecule? N=C1NC(=O)/C(=C/c2ccc(-c3cncc4ccccc34)o2)S1
24

Endpoint output: kinase still bound, per cent of control of O=C1NC(=S)S/C1=C\c1ccc(-c2cncc3ccccc23)o1 . Value?
19

GET /values?readout=kinase still bound, per cent of control&item= COc1cc(N2CCN(C)CC2)ccc1Nc1ncc2c(n1)Nc1ccccc1NC2=O
80

* * *

# Assay target: CDC42BPB (human) (UniProt Q9Y5S2)
# Sequence (Q9Y5S2 whole entry, looked up): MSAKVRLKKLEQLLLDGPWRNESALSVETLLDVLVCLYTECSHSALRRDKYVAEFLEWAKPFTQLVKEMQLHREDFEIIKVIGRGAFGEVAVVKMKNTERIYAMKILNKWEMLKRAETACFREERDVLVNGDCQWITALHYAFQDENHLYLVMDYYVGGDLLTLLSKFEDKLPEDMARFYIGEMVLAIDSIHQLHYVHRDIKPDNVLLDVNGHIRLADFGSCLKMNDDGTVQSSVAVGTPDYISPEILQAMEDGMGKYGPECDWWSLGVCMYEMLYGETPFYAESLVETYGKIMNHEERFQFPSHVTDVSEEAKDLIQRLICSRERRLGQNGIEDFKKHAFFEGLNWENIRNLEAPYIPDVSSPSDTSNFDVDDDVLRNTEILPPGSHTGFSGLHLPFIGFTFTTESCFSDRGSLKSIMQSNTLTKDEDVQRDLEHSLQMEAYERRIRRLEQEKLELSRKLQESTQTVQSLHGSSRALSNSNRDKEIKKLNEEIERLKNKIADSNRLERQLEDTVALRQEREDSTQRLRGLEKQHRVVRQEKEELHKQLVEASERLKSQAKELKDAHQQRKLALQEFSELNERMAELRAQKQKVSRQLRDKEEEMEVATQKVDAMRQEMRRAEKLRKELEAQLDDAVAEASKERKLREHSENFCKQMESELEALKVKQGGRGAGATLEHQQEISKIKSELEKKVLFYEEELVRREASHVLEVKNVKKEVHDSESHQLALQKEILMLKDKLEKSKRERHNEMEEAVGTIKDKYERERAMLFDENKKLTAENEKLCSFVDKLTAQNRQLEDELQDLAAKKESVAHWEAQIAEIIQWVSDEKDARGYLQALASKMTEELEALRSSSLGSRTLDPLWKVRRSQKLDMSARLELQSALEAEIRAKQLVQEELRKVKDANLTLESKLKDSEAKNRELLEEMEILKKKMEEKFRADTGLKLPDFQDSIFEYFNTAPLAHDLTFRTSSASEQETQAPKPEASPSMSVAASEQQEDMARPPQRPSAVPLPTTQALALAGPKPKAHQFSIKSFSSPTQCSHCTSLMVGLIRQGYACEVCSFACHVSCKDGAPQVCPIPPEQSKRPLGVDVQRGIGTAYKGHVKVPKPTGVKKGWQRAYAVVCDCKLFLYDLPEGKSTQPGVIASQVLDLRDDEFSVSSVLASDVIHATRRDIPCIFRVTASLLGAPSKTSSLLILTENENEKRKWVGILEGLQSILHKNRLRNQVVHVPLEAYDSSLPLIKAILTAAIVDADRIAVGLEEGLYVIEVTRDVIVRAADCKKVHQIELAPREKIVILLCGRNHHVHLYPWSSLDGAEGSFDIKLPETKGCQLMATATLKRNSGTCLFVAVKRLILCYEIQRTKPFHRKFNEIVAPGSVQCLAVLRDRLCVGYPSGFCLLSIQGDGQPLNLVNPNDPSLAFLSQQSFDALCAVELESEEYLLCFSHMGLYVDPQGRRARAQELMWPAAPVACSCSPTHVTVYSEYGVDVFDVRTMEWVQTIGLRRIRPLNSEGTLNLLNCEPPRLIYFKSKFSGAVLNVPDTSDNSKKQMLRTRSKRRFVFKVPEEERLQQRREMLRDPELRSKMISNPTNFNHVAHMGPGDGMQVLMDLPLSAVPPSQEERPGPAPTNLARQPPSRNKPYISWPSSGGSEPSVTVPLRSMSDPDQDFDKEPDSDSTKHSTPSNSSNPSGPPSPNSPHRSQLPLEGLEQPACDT
# Assay comment: KINOMEscan competition binding
# Condition info: compound 10.0 µM
Known kinase still bound, per cent of control of a selection of compounds
Could you give me the number in %? Just the number is fine.

Please review the entries below; each comes with its answer.
COc1cc(N2CCN(C)CC2)ccc1Nc1ncc2c(n1)N(C)c1sccc1C(=O)N2C : 99
COc1cc(N2CCC(O)CC2)ccc1Nc1ncc2c(n1)N1CCc3cccc(c31)C(=O)N2C : 94
COc1cc(N2CCN(C)CC2)ccc1Nc1ncc2c(n1)N(C)c1ccccc1N(C)C2=O : 100

Kindly review the next compound as well.
Record lookup: for CDC42BPB (human) (UniProt Q9Y5S2), what kinase still bound, per cent of control belongs to O=C1NC(=O)/C(=C/c2ccc(-c3ccc4c(C(=O)Nc5cccc(C(F)(F)F)c5)cccc4c3)o2)S1 ?
28

* * *

# Tested on: KIT (human), P10721 [V559D]
# Sequence (P10721 whole entry V559D, looked up): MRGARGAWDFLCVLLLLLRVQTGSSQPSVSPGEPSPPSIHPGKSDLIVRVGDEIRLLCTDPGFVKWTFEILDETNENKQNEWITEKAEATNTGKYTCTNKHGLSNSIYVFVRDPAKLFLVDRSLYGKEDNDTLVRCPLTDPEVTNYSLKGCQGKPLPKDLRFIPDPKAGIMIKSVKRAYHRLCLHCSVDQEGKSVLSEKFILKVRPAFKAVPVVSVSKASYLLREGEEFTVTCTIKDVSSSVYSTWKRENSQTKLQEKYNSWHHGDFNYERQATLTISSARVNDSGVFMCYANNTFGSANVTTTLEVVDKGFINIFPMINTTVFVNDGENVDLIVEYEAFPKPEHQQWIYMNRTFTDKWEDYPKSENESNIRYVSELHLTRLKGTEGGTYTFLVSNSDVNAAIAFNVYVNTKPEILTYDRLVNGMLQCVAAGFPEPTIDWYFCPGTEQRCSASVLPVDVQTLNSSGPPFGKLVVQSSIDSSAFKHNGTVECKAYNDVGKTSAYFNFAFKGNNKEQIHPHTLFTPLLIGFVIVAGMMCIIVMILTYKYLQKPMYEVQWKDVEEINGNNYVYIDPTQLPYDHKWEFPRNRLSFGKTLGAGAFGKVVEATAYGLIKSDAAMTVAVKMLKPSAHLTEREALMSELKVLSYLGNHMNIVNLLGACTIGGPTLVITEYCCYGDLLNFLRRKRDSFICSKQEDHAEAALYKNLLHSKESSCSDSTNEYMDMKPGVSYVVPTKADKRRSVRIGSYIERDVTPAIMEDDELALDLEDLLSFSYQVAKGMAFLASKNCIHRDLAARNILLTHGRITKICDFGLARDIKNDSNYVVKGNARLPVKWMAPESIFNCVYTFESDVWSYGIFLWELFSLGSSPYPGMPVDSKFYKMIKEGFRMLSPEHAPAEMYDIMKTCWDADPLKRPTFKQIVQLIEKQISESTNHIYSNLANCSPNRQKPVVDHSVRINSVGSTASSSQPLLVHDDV
# Assay comment: KINOMEscan competition binding
# Condition info: compound 10.0 µM
Overview of reported kinase still bound, per cent of control across a group of molecules:
Form entry: value (%) — number only.

COc1cc(N2CCN(C)CC2)ccc1Nc1ncc2c(n1)N(C)c1ccccc1C(=O)N2 : 22

kinase still bound, per cent of control lookup needed for N=C1NC(=O)/C(=C/c2ccc(-c3cncc4ccccc34)o2)S1 , thanks.
7.2

Value lookup for kinase still bound, per cent of control; key = O=C1NC(=S)S/C1=C\c1ccc(-c2cncc3ccccc23)o1
26

Fill in the blank: the reported kinase still bound, per cent of control of CN1C(=O)c2ccccc2N(C)c2nc(Nc3ccc(N4CCC(O)CC4)cn3)ncc21 is ____.
1.8

Tell me the measured kinase still bound, per cent of control of NS(=O)(=O)c1ccc(-c2ccc(/C=C3/C(=O)NN(c4ccccc4)C3=O)o2)cc1 , please.
29

# input molecule: CN1C(=O)c2ccccc2N(C)c2nc(Nc3ccc(N4CCC(O)CC4)cc3)ncc21 ; wanted: its kinase still bound, per cent of control
80

For the molecule CCN1CCN(Cc2cc(NC(=O)c3cccc4cc(-c5ccc(/C=C6\SC(=O)NC6=O)o5)ccc34)cc(C(F)(F)F)c2)CC1 , what kinase still bound, per cent of control is on record?
1.2

Record request: kinase still bound, per cent of control value, item CN1C(=O)c2ccccc2N(C)c2nc(NS(=O)(=O)c3ccc(N)cc3)ncc21
100

Source of measurements: the kinase profiling compilation of Christmann-Franck et al. (2016)
